- Target Or Test System: Abl kinase (Homo sapiens, UniProt P00519)
- Sequence (P00519 229-512): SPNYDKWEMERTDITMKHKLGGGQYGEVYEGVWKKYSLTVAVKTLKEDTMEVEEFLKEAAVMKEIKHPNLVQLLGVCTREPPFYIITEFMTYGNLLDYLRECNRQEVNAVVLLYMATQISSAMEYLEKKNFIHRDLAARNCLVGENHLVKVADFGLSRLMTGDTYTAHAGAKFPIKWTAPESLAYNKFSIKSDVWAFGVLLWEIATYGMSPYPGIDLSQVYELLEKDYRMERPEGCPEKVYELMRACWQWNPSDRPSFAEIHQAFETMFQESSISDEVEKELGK
- Test: Abl kinase assay A1 (pyruvate kinase/lactate dehydrogenase coupled, spectrophotometric)
- Type: biochemical
- Run Parameters: Method A1; read-out: Abl Data (IC50)
# pIC50 values compiled below
Friendly reminder that pIC50 comes from taking -log10 of the concentration in mol/L.

Use the examples below as a reference point.
compound=CC(C)(C)c1cc(NC(=O)Nc2ccc(Cl)cc2)n(-c2ccc3c(c2)CN(C(=O)NS(C)(=O)=O)CC3)n1 obs_value=5.12
compound=COc1cccc(-n2nc(C(C)(C)C)cc2NC(=O)Nc2ccc(C#N)cc2)c1 obs_value=5.23
compound=CC(C)(C)c1cc(NC(=O)Nc2cc(F)cc(F)c2F)n(-c2cc(CN)c3ccccc3c2)n1 obs_value=7.30
compound=CC(C)(C)c1cc(NC(=O)Nc2ccc(Cl)cc2)n(-c2cnc3ccccc3c2)n1 obs_value=5.32
compound=Cn1ccc2cc(-n3nc(C(C)(C)C)cc3NC(=O)Nc3cccc(Cl)c3Cl)ccc21 obs_value=6.64
compound=CC(C)(C)c1cc(NC(=O)Nc2ccc(F)cc2F)n(-c2cc(CO)c3ccccc3c2)n1 obs_value=6.52
compound=COc1cccc(-n2nc(C(C)(C)C)cc2NC(=O)Nc2cccc(C#N)c2)c1 obs_value=6.43
compound=CC(C)(C)c1cc(NC(=O)Nc2cccc(C#N)c2)n(-c2ccc3c(c2)CCNCC3)n1 obs_value=6.51

# evaluate next
Tell us which pIC50 value is on record for CC(C)(C)c1cc(NC(=O)Nc2cccc(Cl)c2Cl)n(-c2ccc3[nH]ccc3c2)n1
6.77
